Source listed as patent US9238039B2.

Tested on: RSV strain A2
Test: RSV antiviral cytoprotection assay in Hep2 cells (96-well and 384-well format, Cell TiterGlo read-out)
Type: cell-based, Respiratory Syncytial Virus (RSV)
Conditions: human respiratory syncytial virus, HEp-2, 0.5 uM; RSV-induced cytopathic effect in Hep2 cells; calculated from fitted dose response curve, normalized to 0% and 100%
Listed below: inhibition at 0.5 µM values for each entry.
Numbers only; they are read as %.

Some solved cases for reference:
Data point: `Cc1ccc(NS(C)(=O)=O)c(C(=O)N2Cc3ccccc3C[C@H]2c2cc3[nH]c(C)c(C)c(=O)n3n2)c1` ; inhibition at 0.5 µM = 98

Looking up `Cc1cn2nc([C@@H]3CCCCN3C(=O)c3cccc(-n4cnnc4)n3)cc2nc1N1CC[C@H](N)C1` , I see its inhibition at 0.5 µM listed as 98

Note to self: inhibition at 0.5 µM recorded for CS(=O)(=O)Nc1ccc(Cl)cc1C(=O)N1CCCC[C@H]1c1cc2nc(N3CCC3)cc(N3CCNC(C(F)(F)F)C3)n2n1 (stereo partly drawn) was 100

Lab note: measured inhibition at 0.5 µM of `CS(=O)(=O)Nc1ccc(Cl)cc1C(=O)N1CCCC[C@H]1c1cc2nc(N3CCC3)cc(CN3CCOCC3)n2n1` was 87

Looking up `Cc1cn2nc([C@@H]3CCCCN3C(=O)c3ccc4c(c3)OCCO4)cc2nc1N1CC[C@H](N)C1` , I found its inhibition at 0.5 µM recorded as 99

Please turn your attention to the following entry.
So for `Cc1cc(C(=O)N2CCCC[C@H]2c2cc3nc(N4CC[C@H](N)C4)c(C)cn3n2)c2cnn(C)c2n1` , the logged inhibition at 0.5 µM turned out to be 99

====

Tested on: RSV strain A2
Assay: RSV antiviral cytoprotection assay in Hep2 cells (96-well and 384-well format, Cell TiterGlo read-out)
Format: cell-based, Respiratory Syncytial Virus (RSV)
Details: human respiratory syncytial virus, HEp-2, 0.5 uM; RSV-induced cytopathic effect in Hep2 cells; calculated from fitted dose response curve, normalized to 0% and 100%
Listed here are compounds together with their documented inhibition at 0.5 µM.
Please respond with the number in % and leave the unit unwritten.

In the examples that follow, each entry is paired with its recorded inhibition at 0.5 µM.
Sure, the documented inhibition at 0.5 µM for Cc1cn2nc([C@@H]3CCCCN3C(=O)c3ccc(OC(F)F)cc3)cc2nc1N1CC[C@H](N)C1 [Compound 378] is 48

Notebook: Cc1cn2nc([C@@H]3Cc4ccccc4CN3C(=O)c3cc(Cl)ccc3NS(C)(=O)=O)cc2nc1N1CC[C@H](N)C1 [Compound 176] , inhibition at 0.5 µM read as 100

Reported inhibition at 0.5 µM ( CS(=O)(=O)Nc1ccc(Cl)cc1C(=O)N1CCCC[C@H]1c1cc2nc(N3CC(O)C3)cc(N3CCC(O)CC3)n2n1 [Compound 81] ) = 100

Value of measured inhibition at 0.5 µM for the entry CCCn1nc(C)cc1C(=O)N1CCCC[C@H]1c1cc2nc(N3CC[C@H](N)C3)c(C)cn2n1 [Compound 329] : 98

Next:
Reported inhibition at 0.5 µM ( Cc1[nH]c2cc([C@@H]3C[C@H](C)CCN3C(=O)c3cc(F)ccc3NS(C)(=O)=O)nn2c(=O)c1C [Compound 21] ) = 4

Please fill in: inhibition at 0.5 µM reported for Cc1cn2nc([C@@H]3CCCCN3C(=O)c3ccn(CC(F)F)n3)cc2nc1N1CC[C@H](N)C1 [Compound 356] = 100

====

System: RSV strain A2
Assay: RSV antiviral cytoprotection assay in Hep2 cells (96-well and 384-well format, Cell TiterGlo read-out)
Type: cell-based, Respiratory Syncytial Virus (RSV)
Details: human respiratory syncytial virus, HEp-2, 0.5 uM; RSV-induced cytopathic effect in Hep2 cells; calculated from fitted dose response curve, normalized to 0% and 100%
Assay Endpoint: inhibition at 0.5 µM
Units required after the number.

Measured inhibition at 0.5 µM, CS(=O)(=O)Nc1ccc(Cl)cc1C(=O)N1CCCC[C@H]1c1cc2nc(C3CC3)cc(N3CCC3)n2n1 [Compound 64] : 98%

Input CN(C)[C@H]1CCN(c2cc(N3CCC3)nc3cc([C@@H]4CCCCN4C(=O)c4cc(Cl)ccc4NS(C)(=O)=O)nn23)C1 [Compound 76] . Output inhibition at 0.5 µM: 100%

Per the record, Cc1cn2nc([C@@H]3CCCCN3C(=O)c3cc(CC(C)C)nn3C)cc2nc1N1CC[C@H](N)C1 [Compound 368] has inhibition at 0.5 µM of 58%

Item: Cc1cn2nc([C@@H]3CCCCN3C(=O)c3cc(Cl)ccc3NS(C)(=O)=O)cc2nc1N1CC[C@H](N)C1 [Compound 202] | inhibition at 0.5 µM: 100%

With those in mind, consider the next compound.
Given item Cc1cn2nc([C@@H]3CCCCN3C(=O)c3cc(Cl)ccc3NS(C)(=O)=O)cc2nc1N1CC(Oc2ccccn2)C1 [Compound 212] , the value recorded as its inhibition at 0.5 µM is 88%

====

Here the recorded inhibition at 0.5 µM is given for each entry.
System: RSV strain A2
Test: RSV antiviral cytoprotection assay in Hep2 cells (96-well and 384-well format, Cell TiterGlo read-out)
Format: cell-based, Respiratory Syncytial Virus (RSV)
Details: human respiratory syncytial virus, HEp-2, 0.5 uM; RSV-induced cytopathic effect in Hep2 cells; calculated from fitted dose response curve, normalized to 0% and 100%
# value in %; strip the unit string

inhibition at 0.5 µM reading for CS(=O)(=O)Nc1ccc(Cl)cc1C(=O)N1CCCC[C@H]1c1cc2nc(N3CC(N)C3)ccn2n1 [Compound 53] : 98

More entries:
What the record says about COC(=O)NC(C(=O)N1CCCC[C@H]1c1cc2nc(C3CC3)cc(C)n2n1)c1ccccc1 (some centres unmarked) [Compound 118] : inhibition at 0.5 µM is 99

Lookup result for Cc1cn2nc(C3CCCCCN3C(=O)c3cc(Cl)ccc3NS(C)(=O)=O)cc2nc1N1CC(O)C1 (centres unmarked) [Compound 174] ; measured inhibition at 0.5 µM: 100

// inhibition at 0.5 µM value for Cc1cn2nc([C@@H]3CCCCN3C(=O)c3n[nH]c4c3CCC4)cc2nc1N1CC[C@H](N)C1 [Compound 296] : 49

Query CS(=O)(=O)Nc1ccc(Cl)cc1C(=O)N1CCCC[C@H]1c1cc2nc(N3CCC3)cc(N3CCNCC3)n2n1 [Compound 45] yields inhibition at 0.5 µM of 100

Recorded result, Cc1cn2nc([C@@H]3CCCCN3C(=O)c3ccccc3F)cc2nc1N1CC[C@H](N)C1 [Compound 277] , inhibition at 0.5 µM: 98

// inhibition at 0.5 µM value for CS(=O)(=O)Nc1ccc(Cl)cc1C(=O)N1CCCC[C@H]1c1cc2nc(N3CC(O)C3)cc(N3CCN(CC(F)(F)F)CC3)n2n1 [Compound 83] : 98

====

Test system: RSV strain A2
Experiment: RSV antiviral cytoprotection assay in Hep2 cells (96-well and 384-well format, Cell TiterGlo read-out)
Assay type: cell-based, Respiratory Syncytial Virus (RSV)
Details: human respiratory syncytial virus, HEp-2, 0.5 uM; RSV-induced cytopathic effect in Hep2 cells; calculated from fitted dose response curve, normalized to 0% and 100%
Assay Endpoint: inhibition at 0.5 µM (%)
// return numeric value only (unit: %, not printed)

Quick note, inhibition at 0.5 µM for COc1cc(F)ccc1C(=O)N1CCCC[C@H]1c1cc2nc(N3CC[C@H](N)C3)c(C)cn2n1 [Compound 330] landed at 68

Others:
So for C#Cc1cccc(C(=O)N2CCCC[C@H]2c2cc3nc(N4CC[C@H](N)C4)c(C)cn3n2)c1 [Compound 289] , the logged inhibition at 0.5 µM turned out to be 100

For record Cc1cn2nc([C@@H]3CCCCN3C(=O)c3nn(C)c4ccccc34)cc2nc1N1CC[C@H](N)C1 [Compound 357] the listed inhibition at 0.5 µM is 82

Value of measured inhibition at 0.5 µM for the entry Cc1cn2nc([C@@H]3CCCCN3C(=O)c3[nH]c4ccc(F)cc4c3C)cc2nc1N1CC[C@H](N)C1 [Compound 398] : 99

For this molecule ( CNC(=O)c1cc(C(=O)N2CCCC[C@H]2c2cc3nc(N4CC[C@H](N)C4)c(C)cn3n2)n(C)n1 [Compound 371] ), measured inhibition at 0.5 µM is 100

Value of inhibition at 0.5 µM reported for the molecule Cc1cn2nc([C@@H]3CCCCN3C(=O)c3cccc4nnnn34)cc2nc1N1CC[C@H](N)C1 [Compound 316] is 100

====

System: RSV strain A2
Assay: RSV antiviral cytoprotection assay in Hep2 cells (96-well and 384-well format, Cell TiterGlo read-out)
Assay type: cell-based, Respiratory Syncytial Virus (RSV)
Settings: human respiratory syncytial virus, HEp-2, 0.5 uM; RSV-induced cytopathic effect in Hep2 cells; calculated from fitted dose response curve, normalized to 0% and 100%
Assay Endpoint: inhibition at 0.5 µM (%)
Kindly answer with a numeric value in %, unit omitted.

In the examples that follow, each entry is paired with its recorded inhibition at 0.5 µM.
GET /values?item= Cc1cn2nc([C@@H]3CCCCN3C(=O)c3nccs3)cc2nc1N1CC[C@H](N)C1 [Compound 268] &system= RSV strain A2 returns inhibition at 0.5 µM: 76

Reported inhibition at 0.5 µM (RSV strain A2) for entry Cc1cn2nc([C@@H]3CCCCN3C(=O)c3cc(C(C)C)nn3C)cc2nc1N1CC[C@H](N)C1 [Compound 328] is 99

Sample Cc1[nH]c2cc([C@@H]3CCCCN3C(=O)c3ccccc3NC(=O)OC(C)(C)C)nn2c(=O)c1C [Compound 2] , system: RSV strain A2. Its inhibition at 0.5 µM is 36

The measured inhibition at 0.5 µM that CS(=O)(=O)Nc1ccc(Cl)cc1C(=O)N1CCCC[C@H]1c1cc2nc(N3CCC3)cc(N3CCSC3)n2n1 [Compound 106] showed for RSV strain A2 is 100

With RSV strain A2 as the test system, Cc1cn2nc([C@@H]3CCCCN3C(=O)c3cc(Br)ccc3NS(C)(=O)=O)cc2nc1N1CC(O)C1 [Compound 168] showed inhibition at 0.5 µM of 100

Reported RSV strain A2 inhibition at 0.5 µM for item CN1CCCN(c2cc(N3CCC3)nc3cc([C@@H]4CCCCN4C(=O)c4cc(Cl)ccc4NS(C)(=O)=O)nn23)CC1 [Compound 173] was 100

Per the reported RSV strain A2 data, COc1c(C)cccc1C(=O)N1CCCC[C@H]1c1cc2nc(N3CC[C@H](N)C3)c(C)cn2n1 [Compound 320] has inhibition at 0.5 µM of 100

Switching to the query record.
With RSV strain A2 as the test system, C[C@@H]1CN(c2cc(N3CCC3)nc3cc([C@@H]4CCCCN4C(=O)c4cc(Cl)ccc4NS(C)(=O)=O)nn23)C[C@H](C)O1 [Compound 107] showed inhibition at 0.5 µM of 100
